B1: Osa-1-4 twister ribozyme (parent)
chain: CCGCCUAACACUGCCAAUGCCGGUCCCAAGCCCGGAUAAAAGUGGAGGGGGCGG

- Variants of: B1
- assay.remarks: self-cleavage, relative activity (ratio to wild type); higher = more cleavage; co-transcriptional
Rule: MET for self-cleavage not less than 0.08, NOT MET for anything less.

- seq.string: "CCGCCUAACACUGCCAAUGCCGGUCCCAAGCCCGGAUAAAAGUAGAGGGGGCCG [G44A G53C]"
  class.label: "MET"
- seq.string: "CCGCCUAACACUGCCAAUGCCGGUCCCAAGCCCGGAUGAAAGUGGAGGGGACGG [A38G G51A]"
  class.label: "MET"
- seq.string: "CCGCCUGUCACUGCCAAUGCCGGUCCCAAGCCCGGAUAAAAGUGGAGGGGGCGG [A7G A8U]"
  class.label: "MET"
- seq.string: "CCGCCUAACACUGCCGAUUCCGGUCCCAAGCCCGGAUAAAAGUGGAGGGGGCGG [A16G G19U]"
  class.label: "MET"
- seq.string: "CCGCCUAACACUGCCAAUGCCGGUCCCAAGCCCGGAUAAAUGUGGAGGGGGCUG [A41U G53U]"
  class.label: "MET"
- seq.string: "CCGCCUAACACUGCCAAUGCCGGUCCCAAGCCCAGAUAAAAGUGGAGGGAGCGG [G34A G50A]"
  class.label: "MET"
- seq.string: "CCGCCUAACACUGCCAAUGUCGGUCCCAAGCCCGGAUAAAAGUGGAGGGCGCGG [C20U G50C]"
  class.label: "MET"
- seq.string: "CCGCCUAACACUGCCAAUGCCGGUCCCAAGCCCGGAUAAAAGUGGAGGGGGACG [C52A G53C]"
  class.label: "MET"
- seq.string: "CCGCCUAACAGUGCCAAUGCCGGACCCAAGCCCGGAUAAAAGUGGAGGGGGCGG [C11G U24A]"
  class.label: "NOT MET"
- seq.string: "CCGCCUAACACUGCCAAUGCCGGUCGCAAGCCCGGAUAGAAGUGGAGGGGGCGG [A39G C26G]"
  class.label: "MET"
- seq.string: "CCGCCUAACACUGCCAGUGCCGGUCCCAAGCCCGGAUAAAAGUGGAGGUGGCGG [A17G G49U]"
  class.label: "MET"
- seq.string: "CCGCCUAACACUGCCAAUGCCGGUUCCAAGCCCCGAUAAAAGUGGAGGGGGCGG [C25U G34C]"
  class.label: "MET"
- seq.string: "CCGCCUCACACUGCCAAUGCCGGUCCCAAGCCCGGACAAAAGUGGAGGGGGCGG [A7C U37C]"
  class.label: "NOT MET"
- seq.string: "CCGCCUAACACUGCCAAUGCCGGUCCCAAGACCGGAUAAUAGUGGAGGGGGCGG [A40U C31A]"
  class.label: "NOT MET"
- seq.string: "CCGCCUAACACUCCCAAUGCCGGUCCCAAGCCCGGAUAAAAGUUGAGGGGGCGG [G13C G44U]"
  class.label: "NOT MET"
- seq.string: "CCGCCUAACACGGCCAAUGCCGGUCCCAAGCCCGGAGAAAAGUGGAGGGGGCGG [U12G U37G]"
  class.label: "MET"
- seq.string: "CCGCCUAACACUGCCAAUGGCGUUCCCAAGCCCGGAUAAAAGUGGAGGGGGCGG [C20G G23U]"
  class.label: "NOT MET"
- seq.string: "CCGCCUAACAUUGCCAAUGCCGGUCCCAAGCCCGGAUAAAAGUGGACGGGGCGG [C11U G47C]"
  class.label: "NOT MET"
- seq.string: "CCGCCUAACACUGCCUAUGCCGGUCCCAAGCCCGGAUAAAAGUGGAGGGGGUGG [A16U C52U]"
  class.label: "MET"
- seq.string: "CCGCCUAACACUGCCACUGCCGGUCCCAAGCCCGGAUACAAGUGGAGGGGGCGG [A17C A39C]"
  class.label: "MET"
- seq.string: "CCGCCUCACACUGCCAAUGCCGGUCCCAAUCCCGGAUAAAAGUGGAGGGGGCGG [A7C G30U]"
  class.label: "NOT MET"
- seq.string: "CCGCCUAACACUGCCACUGCCGGUUCCAAGCCCGGAUAAAAGUGGAGGGGGCGG [A17C C25U]"
  class.label: "MET"
- seq.string: "CCGCCUAACACUGCCAAUGCCGUUCCCAACCCCGGAUAAAAGUGGAGGGGGCGG [G23U G30C]"
  class.label: "NOT MET"
- seq.string: "CCGCCUAACACUGCCAAUGCCGGUCCCGAGACCGGAUAAAAGUGGAGGGGGCGG [A28G C31A]"
  class.label: "NOT MET"
- seq.string: "CCGCCUAACAGUGCCAAUGCCGGUCCCAAGCCCCGAUAAAAGUGGAGGGGGCGG [C11G G34C]"
  class.label: "NOT MET"
- seq.string: "CCGCCUAACACUGCCAAUCCCGGUCCCAAGCCGGGAUAAAAGUGGAGGGGGCGG [C33G G19C]"
  class.label: "NOT MET"
- seq.string: "CCGCCUAACACUGCCAGUGACGGUCCCAAGCCCGGAUAAAAGUGGAGGGGGCGG [A17G C20A]"
  class.label: "MET"
- seq.string: "CCGCCUAACACUGCCAAAGCCGGUCCCAAGCCCGGAUAAAAGUGGAGGGGGCGC [G54C U18A]"
  class.label: "MET"
